Reported IC50 values for a set of compounds
- Tested on: HCC827 (K-Ras wild type cell line)
- runDescription: Viability assay (CellTiterBlue, 72 hr) HCC827
- Assay type: cell-based
- conditionContext: Homo sapiens, GI50, CellTiterBlue, HCC827 K-Ras wild-type

Use the examples below as a reference point.
Cc1nc(C)c(C(=O)Nc2nc(-c3ccc4c(c3)CCC(=O)N4Cc3cncc4ccccc34)cs2)o1
> 25 µM
Cc1nn(-c2ccccc2)cc1C(=O)Nc1nc(-c2ccc3c(c2)CCC(=O)N3)cs1
> 25 µM
CCc1nc(C)c(C(=O)Nc2nc(-c3ccc4c(c3)CCC(=O)N4Cc3cncnc3)cs2)o1
> 25 µM

Lookup: Quote HCC827 (K-Ras wild type cell line) IC50 for entry `CC(C)c1nn(C)cc1C(=O)Nc1nc(-c2ccc3c(c2)CCC(=O)N3)cs1` .
Found: 8 µM

---

- testedSystem: K-Ras G12D (Homo sapiens, UniProt P01116, G12D)
- Construct: expressed in transfected cells; host or cells: 293H cells
- Sequence (P01116 whole entry G12D): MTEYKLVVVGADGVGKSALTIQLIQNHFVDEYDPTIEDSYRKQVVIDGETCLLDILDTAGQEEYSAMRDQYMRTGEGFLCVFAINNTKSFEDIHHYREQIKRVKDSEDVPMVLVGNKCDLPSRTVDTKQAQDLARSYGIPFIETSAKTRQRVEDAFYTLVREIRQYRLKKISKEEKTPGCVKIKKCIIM
- runDescription: G-LISA Ras activation, 293H cells transfected with G12D mutant
- Format: cell-based
- conditionContext: compound 1 hour
hey, just use condition met if measured IC50 is less than 8 µM, otherwise condition not met

Lookup: IC50 strictly < 8 µM for this molecule? `O=C1CCc2cc(-c3csc(NC(=O)c4ccc(Cl)s4)n3)ccc2N1`
Found: condition not met

Lookup: IC50 strictly < 8 µM for this molecule? `Cc1nc(C)c(C(=O)Nc2nc(-c3ccc4c(c3)CCC(=O)N4CCn3cncn3)cs2)o1`
Found: condition not met

Lookup: IC50 strictly < 8 µM for this molecule? `Cc1nn(C)cc1C(=O)Nc1nc(-c2ccc3c(c2)CCC(=O)N3)cs1`
Found: condition met

Lookup: IC50 strictly < 8 µM for this molecule? `CCc1nc(C)c(C(=O)Nc2nc(-c3ccc4c(c3)CCC(=O)N4Cc3cccnc3)cs2)s1`
Found: condition met

Lookup: IC50 strictly < 8 µM for this molecule? `CCc1nc(C)c(C(=O)Nc2nc(-c3ccc4c(c3)CCC(=O)N4Cc3cccnc3)cs2)o1`
Found: condition met

Lookup: IC50 strictly < 8 µM for this molecule? `CCn1ncc(C(=O)Nc2nc(-c3ccc4c(c3)CCC(=O)N4)cs2)c1C1CC1`
Found: condition not met

Lookup: IC50 strictly < 8 µM for this molecule? `COCCN1C(=O)CCc2cc(-c3csc(NC(=O)c4c(C)nn(C)c4C)n3)ccc21`
Found: condition met

Lookup: IC50 strictly < 8 µM for this molecule? `Cc1nc(C(C)C)oc1C(=O)Nc1nc(-c2ccc3c(c2)CCC(=O)N3)cs1`
Found: condition met

Lookup: IC50 strictly < 8 µM for this molecule? Cc1nc(C2CCOC2)oc1C(=O)Nc1nc(-c2ccc3c(c2)CCC(=O)N3Cc2cccnc2)cs1 (stereo not drawn)
Found: condition met

Lookup: IC50 strictly < 8 µM for this molecule? `Cc1nc(C2CCC2)oc1C(=O)Nc1nc(-c2ccc3c(c2)CCC(=O)N3)cs1`
Found: condition met

Lookup: IC50 strictly < 8 µM for this molecule? `Cc1nc(C)c(C(=O)Nc2nc(-c3ccc4c(c3)CCC(=O)N4CCC(=O)N(C)C)cs2)o1`
Found: condition not met

Lookup: IC50 strictly < 8 µM for this molecule? `Cc1nc(C)c(C(=O)Nc2nc(-c3ccc4c(c3)CCC(=O)N4Cc3cccc(N)c3)cs2)o1`
Found: condition not met

Lookup: IC50 strictly < 8 µM for this molecule? `Cc1nc(C2CCC2)oc1C(=O)Nc1nc(-c2ccc3c(c2)CCC(=O)N3Cc2cccnc2)cs1`
Found: condition not met

Lookup: IC50 strictly < 8 µM for this molecule? `CCc1nc(C)c(C(=O)Nc2nc(-c3ccc4c(c3)CCC(=O)N4CCOC)cs2)o1`
Found: condition met

Lookup: IC50 strictly < 8 µM for this molecule? `CCn1cc(C(=O)Nc2nc(-c3ccc4c(c3)CCC(=O)N4)cs2)cn1`
Found: condition not met

Lookup: IC50 strictly < 8 µM for this molecule? `CCc1cc(C(=O)Nc2nc(-c3ccc4c(c3)CCC(=O)N4)cs2)n(C)n1`
Found: condition not met

Lookup: IC50 strictly < 8 µM for this molecule? `Cn1cc(C(=O)Nc2nc(-c3ccc4c(c3)CCC(=O)N4)cs2)c(C(F)(F)F)n1`
Found: condition not met

---

- System: Panc10.05-G12D
- runDescription: Viability assay (CellTiterBlue, 72 hr) Panc10.05
- Format: cell-based
- conditionContext: Homo sapiens, Panc1005, GI50, CellTiterBlue, Panc10.05 K-Ras G12D, read-out: 72 hr Cell Viability Panc10.05 (G12D)
resultType: pIC50
Kindly note that pIC50 refers to -log10 of the concentration in mol/L and answer with the value alone.

Use the examples below as a reference point.
Cc1nc(C)c(C(=O)Nc2nc(-c3ccc4c(c3)CCC(=O)N4CC3CC3)cs2)o1 [Compound 68]
5.52
Cc1nc(C)c(C(=O)Nc2nc(-c3ccc4c(c3)CCC(=O)N4C3CCCC3)cs2)o1 [Compound 69]
5.52
Cc1nc(C)c(C(=O)Nc2nc(-c3ccc4c(c3)CCC(=O)N4CC3CCCN(C(=O)OC(C)(C)C)C3)cs2)o1 (centres unmarked) [Compound 86]
5.30

Would you kindly look at the next entry?
Lookup: Read off the recorded pIC50 for Cc1nc(C2CCCCC2)sc1C(=O)Nc1nc(-c2ccc3c(c2)CCC(=O)N3)cs1 [Compound 146]
Found: 5.10

---

- Tested on: Panc10.05-G12D
- runDescription: Viability assay (CellTiterBlue, 72 hr) Panc10.05
- Format: cell-based
- conditionContext: Homo sapiens, Panc1005, GI50, CellTiterBlue, Panc10.05 K-Ras G12D, read-out: 72 hr Cell Viability Panc10.05 (G12D)
resultType: pIC50
Kindly note that pIC50 refers to -log10 of the concentration in mol/L and answer with the value alone.

Use the examples below as a reference point.
Cc1nc(C2CCN(C)CC2)sc1C(=O)Nc1nc(-c2ccc3c(c2)CCC(=O)N3)cs1
4.96
Cc1nc(C)c(C(=O)Nc2nc(-c3ccc4c(c3)CCC(=O)N4CC3CCCNC3)cs2)o1 (centres unmarked)
4.80

Would you kindly look at the next entry?
Lookup: Read off the recorded pIC50 for `CCc1nc(C)c(C(=O)Nc2nc(-c3ccc4c(c3)CCC(=O)N4Cc3ccccn3)cs2)o1`
Found: 5.70

---

- Tested on: Panc10.05-G12D
- runDescription: Viability assay (CellTiterBlue, 72 hr) Panc10.05
- Format: cell-based
- conditionContext: Homo sapiens, Panc1005, GI50, CellTiterBlue, Panc10.05 K-Ras G12D, read-out: 72 hr Cell Viability Panc10.05 (G12D)
Reported IC50 values for a set of compounds

Lookup: Read off the recorded IC50 for `Cc1nc(C)c(C(=O)Nc2nc(-c3ccc4c(c3)CCC(=O)N4Cc3nnn[nH]3)cs2)o1`
Found: > 25 µM

Lookup: Read off the recorded IC50 for `O=C1CCc2cc(-c3csc(NC(=O)c4ccnn4-c4ccccc4)n3)ccc2N1`
Found: > 25 µM

---

Reported pIC50 values for a set of compounds
- Tested on: Panc10.05-G12D
- runDescription: Viability assay (CellTiterBlue, 72 hr) Panc10.05
- Type: cell-based
- conditionContext: Homo sapiens, Panc1005, GI50, CellTiterBlue, Panc10.05 K-Ras G12D, read-out: 72 hr Cell Viability Panc10.05 (G12D)
Kindly note that pIC50 refers to -log10 of the concentration in mol/L and answer with the value alone.

Use the examples below as a reference point.
Cc1nc(C)c(C(=O)Nc2nc(-c3ccc4c(c3)CCC(=O)N4)c(Cl)s2)s1 [Compound 144]
5.00
COc1cccc(CN2C(=O)CCc3cc(-c4csc(NC(=O)c5oc(C)nc5C)n4)ccc32)c1 [Compound 76]
6.17

Would you kindly look at the next entry?
Lookup: Read off the recorded pIC50 for Cc1nc(CNC(=O)OC(C)(C)C)sc1C(=O)Nc1nc(-c2ccc3c(c2)CCC(=O)N3)cs1 [Compound 143]
Found: 5.40

---

- System: phospho-Akt in Panc10.05 (G12D)
- runDescription: In-Cell Western phospho-Akt, Panc10.05
- Assay type: cell-based
- conditionContext: Homo sapiens, Panc1005, 1 h; Panc10.05, one hour treatment; read-out: In-Cell Western Panc10.05 (G12D) Akt (P)
Reported pEC50 values for a set of compounds
Kindly note that pEC50 refers to -log10 of the concentration in mol/L and answer with the value alone.

Use the examples below as a reference point.
CCn1cc(C(=O)Nc2nc(-c3ccc4c(c3)CCC(=O)N4Cc3cccnc3)cs2)c(C)n1
4.92
Cc1nc(C(C)C)oc1C(=O)Nc1nc(-c2ccc3c(c2)CCC(=O)N3Cc2cccnc2)cs1
4.92

Lookup: Read off the recorded pEC50 for `Cc1nn(C)cc1C(=O)Nc1nc(-c2ccc3c(c2)CCC(=O)N3)cs1`
Found: 5.10

Lookup: Read off the recorded pEC50 for `Cc1nc(C)c(C(=O)Nc2nc(-c3ccc4c(c3)CCC(=O)N4CCN(C)C)cs2)o1`
Found: 4.92
